Values were extracted from PubChem BioAssay (Tox21).

molecular target: Muscarinic acetylcholine receptor M1 (Homo sapiens); assay: Cholinergic receptor muscarinic 1 (CHRM1) small molecule antagonists, cell-based qHTS assay (AID 1963588); settings: CHRM1-CHO antagonist mode, calcium flux fluorescence; series mostly up to 61.5 µM; note: nearly all actives have a fitted effect of over 40% in size
Records with an inconclusive call do not appear. Calls of active or inactive are those of the source. Calls come from the whole dose curve.
Pick from 1.0 = active, 0.0 = inactive when you respond.

Illustrative cases are given below, each with its answer.
CC(C)(C)Cl = 0.0
C=CC(=C)CCCC(C)(C)OC(C)=O = 0.0
CC=O = 1.0
NC(=O)N(O)[C@@H]1COc2cc(OCc3ccccc3)ccc21 = 0.0
CCCCNC1CC(C)(C)NC(C)(C)C1 = 0.0
COC(C(=O)O)c1ccccc1 (stereo not given) = 0.0
COc1ccc(/C=C/C(=O)c2ccc(OC)cc2OC)cc1 = 0.0
COc1cc(C)nc(-n2nc(C)cc2OC)n1 = 0.0
O=C(c1ccccc1)C1CCC1 = 0.0
O=C(O)c1c(Cl)ccc(Cl)c1Cl = 0.0

Lab note: next molecule to report on.
Check the results log: what was the call for CC(=O)NNC(C)=O ? 0.0

====

molecular target: 5-hydroxytryptamine receptor 2A (Homo sapiens) (UniProt P28223); experiment: 5-hydroxytryptamine receptor 2A (HTR2A) small molecule agonists, cell-based qHTS assay (AID 1963587); conditions: HTR2A-CHO cells, calcium flux fluorescence, agonist mode; series mostly up to 76.8 µM; note: nearly all actives have a fitted effect of over 30% in size; note: potency is the fitted concentration of half-maximal effect
Sequence (P28223 whole entry, looked up): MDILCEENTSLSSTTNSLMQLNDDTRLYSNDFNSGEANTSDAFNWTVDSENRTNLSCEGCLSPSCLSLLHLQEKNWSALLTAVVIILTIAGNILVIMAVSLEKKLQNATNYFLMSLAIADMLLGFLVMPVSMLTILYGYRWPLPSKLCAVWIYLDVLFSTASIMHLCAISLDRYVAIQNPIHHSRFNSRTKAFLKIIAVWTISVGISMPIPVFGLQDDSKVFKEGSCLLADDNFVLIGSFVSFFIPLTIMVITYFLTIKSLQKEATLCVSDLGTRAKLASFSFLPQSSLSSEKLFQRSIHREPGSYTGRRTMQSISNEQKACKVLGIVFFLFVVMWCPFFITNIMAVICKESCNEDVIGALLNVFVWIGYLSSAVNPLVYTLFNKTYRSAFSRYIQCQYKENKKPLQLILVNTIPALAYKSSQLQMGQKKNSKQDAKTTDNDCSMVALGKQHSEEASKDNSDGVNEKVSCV
Records with an inconclusive call do not appear. The source made the active and inactive calls. Calls follow the shape of the full dose curve.
READOUT KIND: Potency

Nc1ccc([N+](=O)[O-])cc1O = inactive
OCCN1CCOCC1 = inactive
C=CCCC(=O)O = inactive
Nc1ccccc1Nc1ccccc1 = inactive
O=C(O)Cc1ccc(OCCNC[C@H](O)c2ccccc2)cc1 = inactive
CCCCOCCOCCOCCOCCO = inactive
COc1ccc(COC=O)cc1 = inactive
CC(C)(C)c1ccc(OC2CCCCC2O)cc1 (configuration not stated) = 43.6 µM (active)
CC(CN)CC(C)(C)CCN (configuration not stated) = inactive
CCOC(=O)[C@@H](C)Oc1ccc(Oc2nc3ccc(Cl)cc3o2)cc1 = inactive

Just so you know, measured Potency for O=C1OC(=O)c2cc(-c3ccc4c(c3)C(=O)OC4=O)ccc21 came out at inactive

Just so you know, measured Potency for [Ca+2] came out at inactive

Just so you know, measured Potency for COc1cc(C)nc(-n2nc(C)cc2OC)n1 came out at inactive

Just so you know, measured Potency for Cc1ccc(N/N=c2\c(=O)cc/c(=N\Nc3ccc(S(=O)(=O)O)cc3)c2=O)c(C)c1 came out at inactive

Just so you know, measured Potency for O=P(O)(O)OP(=O)(O)O came out at inactive

Just so you know, measured Potency for CCN(Cc1ccccc1)c1ccccc1 came out at inactive

Just so you know, measured Potency for CCN1CCN(C(=O)N[C@@H](C(=O)N[C@@H]2C(=O)N3C(C(=O)O)=C(CSc4nnnn4C)CS[C@H]23)c2ccc(O)cc2)C(=O)C1=O came out at inactive

====

test: Nuclear factor erythroid 2-related factor 2/antioxidant responsive element (Nrf2/ARE) small molecule agonists: luciferase reporter gene qHTS assay in human keratinocytes (AID 1919969); conditions: KeratinoSens HaCaT ARE-luciferase, luminescence, 24 h; series mostly up to 92.4 µM; note: % is set by controls: 0 for no effect and ±100 for the full control effect; nearly all actives have a fitted effect of over 35% in size
Results filed as inconclusive are left out. Calls of active or inactive are those of the source. The call rests on the fitted dose curve.
READOUT KIND: outcome

C=COCCOCCOC=C = inactive
Cc1cc2cc3c(C)cc(=O)oc3c(C)c2o1 = inactive
COc1cc(S(=O)(=O)Nc2ccccc2)c(OC)cc1N = inactive

====

target: D(2) dopamine receptor (Homo sapiens) (UniProt P14416); assay: Dopamine D2 receptor (DRD2) small molecule antagonists, cell-based qHTS assay (AID 1963595); conditions: HEK293-DRD2 cAMP HTRF antagonist mode; series mostly up to 92.4 µM; note: % is set by controls: 0 for no effect and ±100 for the full control effect
Sequence (P14416 whole entry, looked up): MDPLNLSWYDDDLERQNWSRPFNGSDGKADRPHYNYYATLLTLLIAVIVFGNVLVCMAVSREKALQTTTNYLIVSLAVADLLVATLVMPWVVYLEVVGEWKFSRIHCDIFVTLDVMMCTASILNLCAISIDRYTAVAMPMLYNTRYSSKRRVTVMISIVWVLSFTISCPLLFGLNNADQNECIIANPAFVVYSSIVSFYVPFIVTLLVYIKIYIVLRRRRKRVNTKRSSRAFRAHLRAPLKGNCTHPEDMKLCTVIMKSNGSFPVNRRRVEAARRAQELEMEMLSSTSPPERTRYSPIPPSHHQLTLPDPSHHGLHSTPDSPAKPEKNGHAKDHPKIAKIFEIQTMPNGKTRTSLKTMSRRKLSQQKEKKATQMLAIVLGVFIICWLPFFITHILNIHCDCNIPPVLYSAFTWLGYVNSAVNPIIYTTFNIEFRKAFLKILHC
Inconclusive results are not listed. Calls of active or inactive are those of the source. The call rests on the fitted dose curve; in most records, active means well fitted inhibition curve with a large enough effect in the signal ratio in the repeat runs, with a control signal flat; inconclusive means weak or mixed curves, or effect the other way; inactive means flat fitted curve, though single readings scatter; the % refers to the signal ratio.
READOUT KIND: outcome

Brc1c(NC2=NCCN2)ccc2nccnc12 = inactive
O[Si](c1ccccc1)(c1ccccc1)c1ccccc1 = inactive
COC(=O)c1ccccc1OC = inactive

====

molecular target: Beta-2 adrenergic receptor (Homo sapiens) (UniProt P07550); assay: Adrenergic beta2 receptor (ADRB2) small molecule agonists, cell-based qHTS assay (AID 1963593); conditions: CHO-ADRB2 cells, cAMP HTRF, 30 min; series mostly up to 92.4 µM;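 note: CHO cells stably overexpressing human ADRB2; % is set by controls: 0 for no effect and ±100 for the full control effect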
Sequence (P07550 whole entry, looked up): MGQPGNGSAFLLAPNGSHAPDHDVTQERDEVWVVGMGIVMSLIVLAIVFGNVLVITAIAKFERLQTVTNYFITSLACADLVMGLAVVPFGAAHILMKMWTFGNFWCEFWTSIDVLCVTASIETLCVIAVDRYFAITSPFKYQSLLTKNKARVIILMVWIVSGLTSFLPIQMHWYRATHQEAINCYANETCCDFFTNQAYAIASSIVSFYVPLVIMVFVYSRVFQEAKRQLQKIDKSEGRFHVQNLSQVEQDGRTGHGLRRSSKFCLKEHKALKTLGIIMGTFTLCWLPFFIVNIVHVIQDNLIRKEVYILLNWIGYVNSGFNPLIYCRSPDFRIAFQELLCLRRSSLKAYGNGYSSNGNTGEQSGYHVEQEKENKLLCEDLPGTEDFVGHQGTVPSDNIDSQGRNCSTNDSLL
Results filed as inconclusive are left out. Active and inactive are the calls of the source. The call rests on the fitted dose curve.
READOUT KIND: activation

O=c1[nH]c2ccc(S(=O)CCN3CCC(Cc4ccc(F)cc4)CC3)cc2o1 (stereo not drawn) = inactive
Cc1onc(-c2ccccc2Cl)c1C(=O)N[C@@H]1C(=O)N2[C@@H]1SC(C)(C)[C@@H]2C(=O)O = inactive
O=C(c1ccccc1)c1ccccc1 = inactive

====

test: Nuclear factor erythroid 2-related factor 2/antioxidant responsive element (Nrf2/ARE) small molecule agonists: qHTS cell viability counter screen in human keratinocytes (AID 1919968); conditions: KeratinoSens HaCaT ARE cells viability, CellTiter-Fluor, 24 h; series mostly up to 92.4 µM; note: nearly all actives have a fitted effect of over 55% in size
Records with an inconclusive call do not appear. Active and inactive are the calls of the source. The call rests on the fitted dose curve; in most records, active means well fitted cell-killing curve with a large enough effect in the repeat runs; inconclusive means weak or mixed curves, or effect the other way; inactive means flat fitted curve, though single readings scatter.
Pick from active, inactive when you respond.

Illustrative cases are given below, each with its answer.
[Cl][Au]([Cl])[Cl] = active
CCCOC(=O)c1c(Cl)c(Cl)c(Cl)c(Cl)c1C(=O)OCCC = inactive
COc1ccc(NC(=O)CC(C)=O)cc1 = inactive
COc1ccc(COC=O)cc1 = inactive
C[C@H]1[C@H](NC(=O)/C(=N/OC(C)(C)C(=O)O)c2csc(N)n2)C(=O)N1S(=O)(=O)O (stereo in doubt) = inactive
COc1nc(C)nc(Cl)c1NC1=NCCN1 = inactive
CCCCCCCCCCCCN1CCCCCC1=O = active

Check the results log: what was the call for CCC(C)OC(C)CC (stereo not drawn) ? inactive

====

Assay: p53 small molecule agonists, cell-based qHTS assay with rat liver microsomes: qHTS cell viability counter screen (AID 1963580); note: % is set by controls: 0 for no effect and ±100 for the full control effect; nearly all actives have a fitted effect of over 45% in size
Settings: p53RE-bla HCT-116 + rat microsomes, ATP viability, 16 h; series mostly up to 66 µM
Description: National Center for Advancing Translational Sciences [NCATS] Division of Preclinical Innovation [DPI] U.S. Environmental Protection Agency [EPA] National Institutes of Environmental Health Sciences [NIEHS] National Toxicology Program [NTP] U.S. Food and Drug Administration [FDA] p53, a tumor suppressor protein, is activated following cellular insult, including DNA damage and other cellular stresses. […] The activation of the reporter gene under culture conditions can be detected by fluorescence intensity. […]
Inconclusive results are not listed. Active and inactive are the calls of the source. Calls come from the whole dose curve.
Pick from active, inactive when you respond.

Check the results log: what was the call for COc1ccc2c(c1)c1c3n2CCN(C)C3=NCC1 ? inactive

Check the results log: what was the call for CC(=O)OCC(=O)[C@H]1CC[C@H]2[C@@H]3CCC4=CC(=O)CC[C@]4(C)[C@H]3CC[C@]12C ? inactive

Check the results log: what was the call for CNCC(O)c1ccc(O)c(O)c1 (stereo not drawn) ? inactive

====

assay: Nuclear factor erythroid 2-related factor 2/antioxidant responsive element (Nrf2/ARE) small molecule agonists: qHTS cell viability counter screen in human keratinocytes (AID 1919968); conditions: KeratinoSens HaCaT ARE cells viability, CellTiter-Fluor, 24 h; series mostly up to 92.4 µM; note: nearly all actives have a fitted effect of over 55% in size
Records with an inconclusive call do not appear. Calls of active or inactive are those of the source. Calls come from the whole dose curve; as a rule, active = well fitted cell-killing curve with a large enough effect in the repeat runs; inconclusive = weak or mixed curves, or effect the other way; inactive = flat fitted curve, though single readings scatter.
Pick from active, inactive when you respond.

Check the results log: what was the call for Oc1cc2ccccc2c2ccccc12 ? active

Check the results log: what was the call for CC(=O)N1CCN(c2ccc(OC[C@H]3CO[C@](Cn4ccnc4)(c4ccc(Cl)cc4Cl)O3)cc2)CC1 ? active

====

biological target: D(2) dopamine receptor (Homo sapiens); assay: Dopamine D2 receptor (DRD2) small molecule antagonists, cell-based qHTS assay (AID 1963595); details: HEK293-DRD2 cAMP HTRF antagonist mode; series mostly up to 92.4 µM; note: % is set by controls: 0 for no effect and ±100 for the full control effect
Results filed as inconclusive are left out. Calls of active or inactive are those of the source. Calls follow the shape of the dose curve; as a rule, active = well fitted inhibition curve with a large enough effect in the signal ratio in the repeat runs, with a control signal flat; inconclusive = weak or mixed curves, or effect the other way; inactive = flat fitted curve, though single readings scatter; the % refers to the signal ratio.
READOUT KIND: outcome

CN(C)[C@@H]1C(=O)C(C(N)=O)=C(O)[C@@]2(O)C(=O)C3=C(O)c4c(O)ccc(Cl)c4[C@@H](O)[C@H]3C[C@@H]12 = inactive
CC[C@]1(O)C[C@H]2CN(CCc3c([nH]c4ccccc34)[C@@](C(=O)OC)(c3cc4c(cc3OC)N(C=O)[C@H]3[C@@](O)(C(=O)OC)[C@H](OC(C)=O)[C@]5(CC)C=CCN6CC[C@]43[C@@H]65)C2)C1 = inactive
CCCC(=O)O[C@]1(C(=O)CO)CC[C@H]2[C@@H]3CCC4=CC(=O)CC[C@]4(C)[C@H]3[C@@H](O)C[C@@]21C = inactive

====

test: p53 small molecule agonists, cell-based qHTS assay with human liver microsomes: qHTS cell viability counter screen (AID 1963579); settings: p53RE-bla HCT-116 viability, ATP luminescence, 16 h, HLM; series mostly up to 66 µM; note: nearly all actives have a fitted effect of over 45% in size
Inconclusive results are not listed. The source made the active and inactive calls. Calls follow the shape of the full dose curve.
Pick from True for active, False for inactive when you respond.

COC(C)=O = False

Check the results log: what was the call for c1ccc(-c2nc3ccccc3[nH]2)cc1 ? False

Check the results log: what was the call for CCCCC(CC)CN=C(N)NC(N)=NCCCCCCN=C(N)NC(N)=NCC(CC)CCCC (stereo not drawn) ? True

Check the results log: what was the call for CCCCCCC(C)OC(=O)COc1nc(F)c(Cl)c(N)c1Cl (stereo not drawn) ? False
